The binders listed here are annotated with their % positive (anti-FLAG positive control = 100%).
# system: T1, FLAG-tagged human IL-11 expressed at the cell surface (human, UniProt P20809 22-199)
# T1 construct: whole, on cells; also called IL-11 expressing HEK cells; target cells expressing human IL-11 at their surface; not shown: how the protein is held at
# T1 sequence (looked up): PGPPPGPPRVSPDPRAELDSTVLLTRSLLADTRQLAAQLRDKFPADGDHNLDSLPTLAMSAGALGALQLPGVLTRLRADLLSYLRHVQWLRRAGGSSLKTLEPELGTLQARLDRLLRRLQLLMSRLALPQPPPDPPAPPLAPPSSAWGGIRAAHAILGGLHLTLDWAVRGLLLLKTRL
# method-summary: flow cytometry of hybridoma subclone supernatants on cells transfected with pB1-IL11-hum.FL (FLAG-tagged human IL-11 at the cell surface), anti-mouse IgG detection; sheet says 'flow cytometry (Attunes)', legend says iQue
metric-name: % positive (anti-FLAG positive control = 100%)

binder="BSN-3C6 (antibody, V domains shown) VH: EVQLQQSGPELVKPGASVKIPCKASGYTFTDYNMDWVKQSHGKSLEWIGDINPHNGGPIYNQKFTGKATLTVDKSSSTAYMELRSLTSEDTAVYYCARGELGHWYFDVWGTGTTVTVSS VL: DIVLTQSPASLAVSLGQRATISCRASKSVSTSGYSYIHWYQQKPGQPPKLLIYLASNLDSGVPARFSGSGSGTDFTLNIHPVEEEDAATYYCQHSRDLPPTFGGGTKLEIK" recorded_value=176
binder="BSN-8H11 (antibody, V domains shown) VH: EVQLQQSGPELVKPGASVKIPCKASGYTFTDYNIDWVKQSHGKSLEWIGDINPNYGGTLYNQKFKGKATLTVDKSSSTAYMELRSLTSEDTAVYYCARGELGHWYFDVWGTGTTVTVSS VL: DIVLTQSPASLAVSLGQRATISCRASKSVSTSDYSYMHWYQQKPGHPPKLLIYLASNLESGVPARFSGSGSGTDFTLNIHPVEEEDAATYFCQHSRDLPPTFGGGTKLEIK" recorded_value=190
binder="BSN-7D4 (antibody, V domains shown) VH: EVQLQQSGPELVKPGASVKISCKASGYTFTDYNMDWVKQSQGKRLEWIGDINPNYGGTIYNQKFKGKATLTVDKSSSTAYMELRSLTSEDTTVYYCTRGELGHWYFDVWGTGTTVTVSS VL: DIVLTQSPPSLTVSLGQRATISCRASKSVSASGYSYMHWYQQKPGQPPKLLIYLTSNLESGVPARFSGSGSGTDFTLNIHPVEEEDAATYYCQHSWDLPPTFGGGTKLEIK" recorded_value=176
binder="BSN-1H2 (antibody, V domains shown) VH: QAQLQQSGAELARPGASVKLSCKASGYTFTSYGITWVKQRTGQGLEWIGDIYPRSGNIYYNENFKGEATLTADKSSSTAYMQLSRLTSEDSAVYFCARSGWEGWFAYWGQGTLVTVSV VL: DIVMTQSHKFMSTSVGDRVNITCKASQDVGSAVVWYQQKPGQSPKVLIYWASTRHTGVPDRFTGSGSGTDFTLTISNVQSEDLADYFCQQYSSYRTFGGGTKLEIK" recorded_value=157
binder="BSN-2G6 (antibody, V domains shown, mouse monoclonal anti-human IL-11 antibody from a hybridoma; also called A5) VH: QVQLQESGPELVKPGASVKIPCKASGYTFTDYNMDWVKQSHGKSLEWIGNINPDNGGTIYNQKFKGKATLTVDKSSSTAYMELRSLTSEDTAVYFCAREGPYGYTWFAYWGQGTLDTVSA VL: DILLTQSPAILSVSPGERVSFSCRASQSIGTSIHWYQQRTNGSPRLLIKYASESISGIPSRFSGSGSGTDFTLSINSVESEDIADYYCQQSNSWPLTFGAGTKLELK" recorded_value=23
binder="BSN-2E1 (antibody, V domains shown, mouse monoclonal anti-human IL-11 antibody from a hybridoma; also called A3) VH: QVQLQESGPELVKPGASVKIPCKASGYTFTDYNMDWVKQSHGKSLEWIGDINPHNGGPIYNQKFTGKATLTVDKSSSTAYMELRSLTSEDTAVYYCARGELGHWYFDVWGTGTTVTVSS VL: NIVMTQSPKSMSMSVGERVTLTCKASENVVTYVSWYQQKPEQSPKLLIYGASNRYTGVPDRFTGSGSATDFTLTISSVQAEDLADYHCGQGYSYPYTFGGGTKLEIK" recorded_value=164
binder="BSN-5B8 (antibody, V domains shown, mouse monoclonal anti-human IL-11 antibody from a hybridoma; also called A9) VH: QVQLQQSGAELARPGTSVKLSCKASGYTFTSYGISWVKQRTGQGLEWIGEIYPRSSNTYYNEKFKGKATLTADKSSSTAYMELRSLTSEDSADYFCARANWVGYFDVWGTGTTVTVSS VL: DIVMTQSHKFMSTSVGDRVTITCKASQDVGTAVAWYQQKPGQSPKLLIYWASTRLTGVPDRFTGSGSGTYFTLTINNVQSEDLADYFCQQYSSYRTFGGGTKLEIK" recorded_value=188

Source listed as patent US20180186871A1.
